- Study Target: CDK7/Cyclin H/MNAT1 (Homo sapiens)
- Assay Comment: Inhibition of CDK7/Cyclin H/MNAT1 kinase activity (ADP-Glo)
- Assay type: biochemical
- Condition Info: mean value from several measurements; read-out: IC50 CDK7/Cyclin H/MNAT
Readout Kind: IC50

compound=NC(=O)c1cc(-c2nc(N[C@H]3CCCNC3)ncc2C(F)(F)F)c[nH]1 readout_kind=IC50 result="5 to 50 nM"
compound=CCN1CCCc2c(-c3nc(N[C@H]4CCC(C)(C)NC4)ncc3C(F)(F)F)c[nH]c2C1=O readout_kind=IC50 result="< 5 nM"
compound=CS(=O)(=O)CCNC(=O)c1cc(-c2nc(N[C@H]3CCCNC3)ncc2C(F)(F)F)c[nH]1 readout_kind=IC50 result="5 to 50 nM"
compound=Cn1nnnc1-c1cc(-c2nc(N[C@H]3CCCNC3)ncc2C(F)(F)F)c[nH]1 readout_kind=IC50 result="< 5 nM"
compound=O=C(Nc1ncc[nH]1)c1cc(-c2nc(N[C@H]3CCCNC3)ncc2C(F)(F)F)c[nH]1 readout_kind=IC50 result="5 to 50 nM"
compound="CC1CCc2c(-c3nc(N[C@H]4CCCNC4)ncc3C(F)(F)F)c[nH]c2C(=O)N1C (some centres unmarked)" readout_kind=IC50 result="< 5 nM"
compound=CN1CCc2c(-c3nc(N[C@H]4CCCNC4)ncc3C(F)(F)F)c[nH]c2C1=O readout_kind=IC50 result="5 to 50 nM"
compound=Cn1cc(N2CCCc3c(-c4nc(N[C@H]5CCC(C)(C)NC5)ncc4C(F)(F)F)c[nH]c3C2=O)cn1 readout_kind=IC50 result="5 to 50 nM"

---

A collection of molecules and their measured pIC50
- Study Target: CDK2/Cyclin A (Homo sapiens)
- Assay Comment: Inhibition of CDK2/Cyclin A kinase activity (ADP-Glo)
- Assay type: biochemical
- Condition Info: mean value from several measurements; read-out: IC50 CDK2/Cyclin A
pIC50: −log10 of the molar value.
Readout Kind: pIC50

molecule="Cn1cc(-n2ccc3c(-c4nc(N[C@H]5CCCNC5)ncc4C(F)(F)F)c[nH]c3c2=O)ccc1=O [CDK7_1052]" readout_kind=pIC50 result="< 6.70"
molecule="FC(F)(F)c1cnc(N[C@H]2CCCNC2)nc1Oc1ccccc1 [CDK7_754]" readout_kind=pIC50 result="< 6.70"
molecule="CN(C)C(=O)c1cc(-c2nc(N[C@H]3CCCNC3)ncc2C(F)(F)F)c[nH]1 [CDK7_536]" readout_kind=pIC50 result="< 6.70"
molecule="COCCN1CCCc2c(-c3nc(N[C@H]4CCC(C)(C)NC4)ncc3C(F)(F)F)c[nH]c2C1=O [CDK7_1268]" readout_kind=pIC50 result="< 6.70"

---

A collection of molecules and their measured half-life
- Assay Comment: Pharmacokinetics in mice plasma following intravenous administration
- Format: in vivo, CD-1 mice
- Condition Info: male, CD-1, mouse, dose 2 mg/kg, read-out: T½ (converted)
Readout Kind: half-life (min)

mol=CN1CCCc2c(-c3nc(N[C@H]4CCC(C)(C)NC4)ncc3C(F)(F)F)c[nH]c2C1=O number=102
mol=O=C1c2[nH]cc(-c3nc(N[C@H]4CCC5(CC5)NC4)ncc3C(F)(F)F)c2CCCN1C1CC1 number=249
mol=CC(C)N1CCCc2c(-c3nc(N[C@H]4CCC(C)(C)NC4)ncc3C(F)(F)F)c[nH]c2C1=O number=120
mol=CC1(C)CC[C@H](Nc2ncc(C(F)(F)F)c(-c3c[nH]c4c3CCCN(C3CC3)C4=O)n2)CN1 number=108

---

- Study Target: CDK7/Cyclin H/MNAT1 (Homo sapiens, UniProt P50613)
- Sequence (P50613 whole entry): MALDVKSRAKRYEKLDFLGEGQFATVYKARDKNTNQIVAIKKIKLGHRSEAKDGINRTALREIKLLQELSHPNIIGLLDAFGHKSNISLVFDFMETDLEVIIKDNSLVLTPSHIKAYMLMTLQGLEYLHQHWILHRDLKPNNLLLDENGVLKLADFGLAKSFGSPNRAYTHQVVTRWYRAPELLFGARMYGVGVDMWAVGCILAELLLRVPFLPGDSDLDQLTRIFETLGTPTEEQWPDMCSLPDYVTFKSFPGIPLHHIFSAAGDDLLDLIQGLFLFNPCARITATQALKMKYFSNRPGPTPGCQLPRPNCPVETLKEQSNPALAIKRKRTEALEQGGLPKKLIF
- Sequence (P51946 whole entry partner): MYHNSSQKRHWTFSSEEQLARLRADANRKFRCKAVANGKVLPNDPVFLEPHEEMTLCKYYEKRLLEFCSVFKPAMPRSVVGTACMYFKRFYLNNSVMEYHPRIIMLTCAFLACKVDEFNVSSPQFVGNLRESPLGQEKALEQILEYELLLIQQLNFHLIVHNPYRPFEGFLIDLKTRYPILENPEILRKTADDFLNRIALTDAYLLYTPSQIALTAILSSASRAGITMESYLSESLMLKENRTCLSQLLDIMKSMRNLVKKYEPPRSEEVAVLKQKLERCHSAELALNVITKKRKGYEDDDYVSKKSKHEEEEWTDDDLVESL
- Sequence (P51948 whole entry partner): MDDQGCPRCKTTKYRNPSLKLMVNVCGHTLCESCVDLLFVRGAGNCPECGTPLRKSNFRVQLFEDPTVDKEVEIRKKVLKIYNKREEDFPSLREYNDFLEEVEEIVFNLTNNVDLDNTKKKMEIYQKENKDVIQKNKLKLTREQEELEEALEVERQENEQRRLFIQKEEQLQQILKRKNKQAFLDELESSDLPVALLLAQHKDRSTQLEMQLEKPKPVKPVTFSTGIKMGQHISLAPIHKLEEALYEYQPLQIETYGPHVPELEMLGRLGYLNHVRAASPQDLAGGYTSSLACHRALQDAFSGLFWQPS
- Assay Comment: Inhibition of CDK7/Cyclin H/MNAT1 kinase activity (ADP-Glo)
- Format: biochemical
- Condition Info: mean of multiple measurement series; ATP 10 μM; read-out: CDK7/Cyclin H/MNAT1 IC50
pIC50: −log10 of the molar value.
Readout Kind: pIC50

compound="Cn1cc(-n2ccc3c(-c4nc(N[C@H]5CCC(C)(C)NC5)ncc4C(F)(F)F)c[nH]c3c2=O)cn1 [CDK7_1123]" readout_kind=pIC50 result="> 8.30"
compound="Cc1noc(C)c1-n1ccc2c(-c3nc(N[C@H]4CCCNC4)ncc3C(F)(F)F)c[nH]c2c1=O [CDK7_924]" readout_kind=pIC50 result="> 8.30"
compound="CC(C)N1CCCc2c(-c3nc(N[C@H]4CCC5(CC5)NC4)ncc3C(F)(F)F)c[nH]c2C1=O [CDK7_1277]" readout_kind=pIC50 result="> 8.30"

---

- Study Target: CDK9/Cyclin K (Homo sapiens, UniProt P50750)
- Sequence (P50750 whole entry): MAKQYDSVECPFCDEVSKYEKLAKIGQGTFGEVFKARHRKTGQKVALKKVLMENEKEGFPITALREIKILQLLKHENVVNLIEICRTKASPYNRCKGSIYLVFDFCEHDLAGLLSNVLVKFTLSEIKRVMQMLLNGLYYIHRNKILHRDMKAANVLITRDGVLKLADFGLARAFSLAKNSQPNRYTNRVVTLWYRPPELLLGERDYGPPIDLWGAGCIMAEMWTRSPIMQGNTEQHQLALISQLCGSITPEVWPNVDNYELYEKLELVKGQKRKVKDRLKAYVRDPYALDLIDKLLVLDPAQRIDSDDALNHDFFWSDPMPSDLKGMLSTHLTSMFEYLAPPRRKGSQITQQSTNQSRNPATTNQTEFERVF
- Sequence (O75909 whole entry partner): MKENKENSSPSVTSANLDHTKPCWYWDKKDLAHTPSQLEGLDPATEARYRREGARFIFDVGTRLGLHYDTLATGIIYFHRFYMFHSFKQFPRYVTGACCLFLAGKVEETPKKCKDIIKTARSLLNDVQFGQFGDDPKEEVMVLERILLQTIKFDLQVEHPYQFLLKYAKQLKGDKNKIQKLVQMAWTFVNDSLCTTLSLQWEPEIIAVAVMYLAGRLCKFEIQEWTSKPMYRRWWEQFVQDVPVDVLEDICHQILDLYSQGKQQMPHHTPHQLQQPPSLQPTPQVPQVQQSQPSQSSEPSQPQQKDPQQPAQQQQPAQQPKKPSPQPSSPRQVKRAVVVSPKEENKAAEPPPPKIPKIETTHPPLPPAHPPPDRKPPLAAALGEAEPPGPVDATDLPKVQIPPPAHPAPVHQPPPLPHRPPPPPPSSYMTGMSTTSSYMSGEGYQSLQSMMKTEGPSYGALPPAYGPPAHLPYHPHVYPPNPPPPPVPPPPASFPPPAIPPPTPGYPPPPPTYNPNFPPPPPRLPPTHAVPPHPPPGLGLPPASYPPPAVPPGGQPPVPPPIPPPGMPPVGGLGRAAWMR
- Assay Comment: Inhibition of CDK9/Cyclin K kinase activity (ADP-Glo)
- Type: biochemical
- Condition Info: mean value from several measurements; read-out: IC50 CDK9/Cyclin K
pIC50: −log10 of the molar value.
A collection of compounds and their measured pIC50
Readout Kind: pIC50

compound="CC1(C)CC[C@H](Nc2ncc(C(F)(F)F)c(-c3c[nH]c4c3CCCN(CC3CC3)C4=O)n2)CN1 [CDK7_1227]" readout_kind=pIC50 result="< 6.70"
compound="COCCN1CCCc2c(-c3nc(N[C@H]4CCC(C)(C)NC4)ncc3C(F)(F)F)c[nH]c2C1=O [CDK7_1268]" readout_kind=pIC50 result="< 6.70"
compound="CS(=O)(=O)CCNC(=O)c1cc(-c2nc(N[C@H]3CCCNC3)ncc2C(F)(F)F)c[nH]1 [CDK7_848]" readout_kind=pIC50 result="7.30 to 8.30"
compound="O=C1c2[nH]cc(-c3nc(NC4CCCNC4)ncc3C(F)(F)F)c2CCCN1C1CC1 (stereo not drawn) [CDK7_1188]" readout_kind=pIC50 result="< 6.70"
compound="FC(F)(F)c1cnc(N[C@H]2CCCNC2)nc1-c1c[nH]c(-c2ccccn2)c1 [CDK7_1061]" readout_kind=pIC50 result="7.30 to 8.30"
compound="CC1(C)CC[C@H](Nc2ncc(C(F)(F)F)c(-c3c[nH]c4c3CCCN(CC3CCCC3)C4=O)n2)CN1 [CDK7_1155]" readout_kind=pIC50 result="< 6.70"

---

A collection of molecules and their measured IC50
- Study Target: CDK9/Cyclin K (Homo sapiens)
- Assay Comment: Inhibition of CDK9/Cyclin K kinase activity (ADP-Glo)
- Type: biochemical
- Condition Info: mean value from several measurements; read-out: IC50 CDK9/Cyclin K
- Description: Measurements were carried out in a 5 μl reaction volume using a 384-well plate (Corning Inc., order no. 4513). The analyzed substances were titrated from 50 μM in increments of 4 at 11 concentration points in a normal strength kinase buffer A (Thermo Fisher Scientific Inc, cat. no. PV3189) supplemented with DTT (Sigma, orde. no. 646563-10X.5ML) and prepared with water (Panreac, order no. 701074). […]
Readout Kind: IC50

molecule="CN(Cc1ccccc1)C(=O)c1cc(-c2nc(N[C@H]3CCCNC3)ncc2C(F)(F)F)c[nH]1 [CDK7_998]" result="> 200 nM"
molecule="Cn1cc(-n2ccc3c(-c4nc(N[C@H]5CCCNC5)ncc4C(F)(F)F)c[nH]c3c2=O)cn1 [CDK7_959]" result="50 to 200 nM"
molecule="FC(F)(F)c1cnc(N[C@H]2CCCNC2)nc1-c1c[nH]c(-c2noc(C3CC3)n2)c1 [CDK7_1103]" result="50 to 200 nM"
molecule="CNC(=O)c1cc(-c2nc(N[C@H]3CCCNC3)ncc2C(F)(F)F)c[nH]1 [CDK7_846]" result="5 to 50 nM"
molecule="Cc1ccc(P(C)(C)=O)c(Nc2nc(N[C@H]3CCCNC3)ncc2C(F)(F)F)c1 [CDK7_903]" result="> 200 nM"
molecule="O=C(Nc1ccccc1)c1cc(-c2nc(N[C@H]3CCCNC3)ncc2C(F)(F)F)c[nH]1 [CDK7_538]" result="50 to 200 nM"
molecule="CN(C)C(=O)c1cc(-c2nc(N[C@H]3CCCNC3)ncc2C(F)(F)F)c[nH]1 [CDK7_536]" result="5 to 50 nM"
molecule="CN(C(=O)c1cc(-c2nc(N[C@H]3CCCNC3)ncc2C(F)(F)F)c[nH]1)C1CC1 [CDK7_1001]" result="5 to 50 nM"

---

- Study Target: CDK9/Cyclin K (Homo sapiens)
- Assay Comment: Inhibition of CDK9/Cyclin K kinase activity (ADP-Glo)
- Format: biochemical
- Condition Info: mean value from several measurements; read-out: IC50 CDK9/Cyclin K
pIC50: −log10 of the molar value.
A collection of molecules and their measured pIC50
Readout Kind: pIC50

molecule="Cn1cc(NC(=O)c2cc(-c3nc(N[C@H]4CCCNC4)ncc3C(F)(F)F)c[nH]2)cn1 [CDK7_835]" readout_kind=pIC50 result="7.30 to 8.30"
molecule="Cc1nc(-c2cc(-c3nc(N[C@H]4CCCNC4)ncc3C(F)(F)F)c[nH]2)no1 [CDK7_1060]" readout_kind=pIC50 result="7.30 to 8.30"
molecule="CP(C)(=O)c1ccccc1Nc1nc(N[C@H]2CCCNC2)ncc1C(F)(F)F [CDK7_735]" readout_kind=pIC50 result="7.30 to 8.30"
molecule="FC(F)(F)c1cnc(N[C@H]2CCCNC2)nc1-c1c[nH]c(-c2ccccc2)c1 [CDK7_533]" readout_kind=pIC50 result="< 6.70"
molecule="Nc1ccccc1Oc1nc(N[C@H]2CCCNC2)ncc1C(F)(F)F [CDK7_548]" readout_kind=pIC50 result="7.30 to 8.30"
molecule="O=c1c2[nH]cc(-c3nc(N[C@H]4CCCNC4)ncc3C(F)(F)F)c2ccn1Cc1ccccc1 [CDK7_961]" readout_kind=pIC50 result="6.70 to 7.30"
molecule="N#Cc1ccc(NC(=O)c2cc(-c3nc(N[C@H]4CCCNC4)ncc3C(F)(F)F)c[nH]2)cc1 [CDK7_837]" readout_kind=pIC50 result="< 6.70"
molecule="CN1CCCc2c(-c3nc(N[C@H]4CCC(C)(C)NC4)ncc3C(F)(F)F)c[nH]c2C1=O [CDK7_1187]" readout_kind=pIC50 result="< 6.70"
molecule="CC1(C)CC[C@H](Nc2ncc(C(F)(F)F)c(-c3c[nH]c4c3CCCN(C3CCCC3)C4=O)n2)CN1 [CDK7_1154]" readout_kind=pIC50 result="< 6.70"
